The measurements presented in this section are drawn from patent US8362000B2.

molecular target: mutant MGL (Homo sapiens, UniProt Q99685, L169S/L176S); experiment: MGL ThermoFluor assay - mutant; format: binding; conditions: ThermoFluor concentration-response, read-out: MGL mutant ThermoFluor Kd
Sequence (Q99685 whole entry L169S/L176S): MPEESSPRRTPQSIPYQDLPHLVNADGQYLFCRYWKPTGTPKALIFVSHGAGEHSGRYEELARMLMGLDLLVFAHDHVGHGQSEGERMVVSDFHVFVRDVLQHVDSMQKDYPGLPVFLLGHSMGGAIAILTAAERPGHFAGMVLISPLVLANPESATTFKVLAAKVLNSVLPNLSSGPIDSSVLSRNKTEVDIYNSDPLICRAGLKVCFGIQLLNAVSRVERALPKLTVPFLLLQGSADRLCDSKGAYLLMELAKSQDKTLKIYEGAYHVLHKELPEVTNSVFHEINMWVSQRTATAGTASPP
Measured parameter: Kd (nM)
Give bare numbers, in nM.

Below, each entry is followed by its recorded Kd result.
>>> measurement("O=C(c1ccccc1)N1CCN(C2CN(C(=O)c3ccc(Oc4ccccc4)cc3)C2)CC1")
192
>>> measurement("O=C(c1ccccc1)N1CCN(C2CN(C(=O)c3ccc(Oc4ccc(Br)cn4)cc3)C2)CC1")
2330
>>> measurement("O=C(c1ccc(-c2ccc(Br)cc2)cc1)N1CC(N2CCN(C(=O)c3cscn3)CC2)C1")
100
>>> measurement("Cc1ccc(-c2nnc(-c3ccc(C(=O)N4CC(N5CCN(C(=O)c6nccs6)CC5)C4)cc3)o2)cc1")
90
>>> measurement("N#Cc1ccc(N2CCC(C(=O)N3CC(N4CCN(C(=O)c5nccs5)CC4)C3)CC2)cc1")
1610

Dear reader, for each entry below, please note its Kd.
1. Cc1c(C(=O)N2CC(N3CCN(C(=O)c4ccccc4)CC3)C2)sc2cc(C(F)(F)F)ccc12
2. O=C(c1ccccc1)C1CCC(C(=O)N2CC(N3CCN(C(=O)c4ccccc4)CC3)C2)CC1 (centres unmarked)
3. O=C(c1ccc2nc(C(F)(F)F)cc(Cl)c2c1)N1CC(N2CCN(C(=O)c3cscn3)CC2)C1

1: 10; 2: 1250; 3: 833
